protocolDescription: Plasma clearance in iv/po dosed Sprague-Dawley rat
Assay type: ADME, organism-based
Each item that follows carries a reported clearance.
Write the number in mL/min/kg without appending the unit.

# count of solved cases: 3
CN(C)C1CCc2cc(N3CC[C@H](NS(=O)(=O)/C=C/c4ccc(Cl)s4)C3=O)ccc21 (mixture of isomers) = 9.5
CN(C)[C@@H]1CCc2cc(N3CC[C@H](NS(=O)(=O)c4ccc5cc(Cl)ccc5c4)C3=O)ccc21 = 7.6
O=C1[C@@H](NS(=O)(=O)c2ccc3c(Cl)c[nH]c3c2)CCN1c1ccc(C2CCCN2)cc1F (mixture of isomers) = 1.3

Lab note: next molecule to report on.
Record summary for CNC1CCc2cc(N3CC[C@H](NS(=O)(=O)/C=C/c4ccc(Cl)s4)C3=O)ccc21 (mixture of isomers) : reported clearance = 2.2

###

protocolDescription: Half life in iv/po dosed Sprague-Dawley rat
Format: ADME, organism-based
conditionSummary: in vivo
Each item that follows carries a reported half-life.

# count of solved cases: 6
O=C1[C@@H](NS(=O)(=O)c2ccc3c(Cl)c[nH]c3c2)CCN1c1ccc(C2CCCN2)cc1F (mixture of isomers) = 11 h
CN(C)[C@@H]1CCc2cc(N3CC[C@H](NS(=O)(=O)c4ccc5cc(Cl)ccc5c4)C3=O)ccc21 = 3.4 h
CNC1CCc2cc(N3CC[C@H](NS(=O)(=O)/C=C/c4ccc(Cl)s4)C3=O)ccc21 (mixture of isomers) = 5.4 h
O=C1[C@@H](NS(=O)(=O)c2ccc3cc(Cl)ccc3c2)CCN1c1ccc([C@@H]2CCCN2)cc1F = 7.5 h
CNC1CCc2cc(N3CC[C@H](NS(=O)(=O)c4ccc5cc(Cl)ccc5c4)C3=O)ccc21 (mixture of isomers) = 12.4 h
CN(C)C1CCc2cc(N3CC[C@H](NS(=O)(=O)/C=C/c4ccc(Cl)s4)C3=O)ccc21 (mixture of isomers) = 1.7 h

Lab note: next compound to report on.
Record summary for O=C1[C@@H](NS(=O)(=O)c2ccc3cc(Cl)ccc3c2)CCN1c1ccc([C@H]2CCCN2)cc1F : reported half-life = 10.2 h

###

protocolDescription: Volume of distribution at steady state in iv/po dosed Sprague-Dawley rat
Type: ADME, organism-based
conditionSummary: in vivo, read-out: Vdss
measuredParameter: Vd (L/kg)
Write the number in L/kg without appending the unit.

# count of solved cases: 3
CN(C)[C@@H]1CCc2cc(N3CC[C@H](NS(=O)(=O)c4ccc5cc(Cl)ccc5c4)C3=O)ccc21 = 1.7
CN(C)[C@H]1CCc2cc(N3CC[C@H](NS(=O)(=O)c4ccc5cc(Cl)ccc5c4)C3=O)ccc21 = 2
CN1CCCC1c1ccc(N2CC[C@H](NS(=O)(=O)/C=C/c3ccc(Cl)s3)C2=O)c(F)c1 (mixture of isomers) = 0.8

Record summary for CNC1CCc2cc(N3CC[C@H](NS(=O)(=O)/C=C/c4ccc(Cl)s4)C3=O)ccc21 (mixture of isomers) : reported Vd = 0.9

###

protocolDescription: Plasma clearance in iv/po dosed Sprague-Dawley rat
Type: ADME, organism-based
measuredParameter: clearance (L/h/kg)
Write the number in L/h/kg without appending the unit.

# count of solved cases: 3
CN1CCCC1c1ccc(N2CC[C@H](NS(=O)(=O)/C=C/c3ccc(Cl)s3)C2=O)c(F)c1 (mixture of isomers) = 0.66
CN(C)[C@H]1CCc2cc(N3CC[C@H](NS(=O)(=O)c4ccc5cc(Cl)ccc5c4)C3=O)ccc21 = 0.36
O=C1[C@@H](NS(=O)(=O)c2ccc3cc(Cl)ccc3c2)CCN1c1ccc([C@@H]2CCCN2)cc1F = 0.168

Lab note: next compound to report on.
Record summary for O=C1[C@@H](NS(=O)(=O)/C=C/c2ccc(Cl)s2)CCN1c1ccc(C2CCCN2)cc1F (mixture of isomers) : reported clearance = 0.168

Source: ChEMBL document CHEMBL1681766
